B1: Ankyrin-3, residues 4094 to 4171; numbered along this chain, Q12955 (parent)
chain: MAIVADHLGLSWTELARELNFSVDEINQIRVENPNSLISQSFMLLKKWVTRDGKNATTDALTSVLTKINRIDIVTLLE

- Variants of: B1
- ASSAY_COMMENT: abundance fitness (aPCA) (normalised: wild type 0, dead -1); higher = more abundant; growth selection in yeast, the domain comes from the species named
- ASSAY_CONTEXT: Homo sapiens
Respond with true (1) for abundance fitness values of -0.5 and above, false (0) for values below.

[
  {
    "VARIANT_IDENTIFIER": "T50N",
    "ANSWER_LABEL": "true (1)"
  },
  {
    "VARIANT_IDENTIFIER": "R17Y",
    "ANSWER_LABEL": "true (1)"
  },
  {
    "VARIANT_IDENTIFIER": "D59F",
    "ANSWER_LABEL": "false (0)"
  },
  {
    "VARIANT_IDENTIFIER": "S11L",
    "ANSWER_LABEL": "false (0)"
  },
  {
    "VARIANT_IDENTIFIER": "D59Q",
    "ANSWER_LABEL": "true (1)"
  },
  {
    "VARIANT_IDENTIFIER": "S11R",
    "ANSWER_LABEL": "false (0)"
  },
  {
    "VARIANT_IDENTIFIER": "G53S",
    "ANSWER_LABEL": "true (1)"
  },
  {
    "VARIANT_IDENTIFIER": "A5C",
    "ANSWER_LABEL": "true (1)"
  },
  {
    "VARIANT_IDENTIFIER": "L61P",
    "ANSWER_LABEL": "false (0)"
  }
]
